assay_method_text: Metabolic stability in mouse liver microsome assessed as half life
Format: ADME
condition_summary: liver microsomes

compound_structure_string: C=CC(=O)[C@H](Cc1ccccc1)NC(=O)[C@H](CC(C)C)NC(=O)COc1ccc(Cl)cc1Cl
half-life: > 1 h
//
compound_structure_string: C=CC(=O)[C@H](Cc1ccccc1)NC(=O)[C@H](CC(C)C)NC(=O)CSc1ccccc1
half-life: > 1 h

* * *

system: Procathepsin L (Homo sapiens, UniProt P07711)
Sequence (P07711 whole entry): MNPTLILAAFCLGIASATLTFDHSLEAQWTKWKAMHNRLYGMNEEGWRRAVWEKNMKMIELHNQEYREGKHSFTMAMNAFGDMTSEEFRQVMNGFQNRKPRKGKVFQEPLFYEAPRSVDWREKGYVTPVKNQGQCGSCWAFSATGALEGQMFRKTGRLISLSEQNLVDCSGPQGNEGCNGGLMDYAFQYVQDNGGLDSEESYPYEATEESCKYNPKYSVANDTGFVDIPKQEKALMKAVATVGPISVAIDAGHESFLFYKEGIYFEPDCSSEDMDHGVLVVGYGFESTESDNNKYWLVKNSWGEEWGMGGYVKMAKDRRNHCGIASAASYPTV

compound_structure_string: C=CC(=O)[C@H](Cc1ccccc1)NC(=O)OC(C)(C)C
u: nM
Ki: 152

* * *

Tested on: Middle East respiratory syndrome-related coronavirus
assay_method_text: Inhibition of MERS-CoV Main protease using Ac-Abu-Tle-Leu-Gln-ACC as substrate at 10 uM incubated for 15 mins by fluorescence based microplate reader analysis relative to control

compound_structure_string: C=CC(=O)[C@H](Cc1cccc(Cl)c1)NC(=O)[C@H](CC(C)C)NC(=O)COc1ccc(Cl)cc1Cl
inhibition / %: 44
--
compound_structure_string: C=CC(=O)[C@H](Cc1ccccc1)NC(=O)[C@H](CC(C)C)NC(=O)/C=C/c1ccc(OC(F)(F)F)cc1
inhibition / %: 32
--
compound_structure_string: C=CC(=O)[C@H](Cc1ccccc1)NC(=O)[C@H](CC(C)C)NC(=O)/C=C/c1ccc(N(C)C)cc1
inhibition / %: 40
--
compound_structure_string: C=CC(=O)[C@H](Cc1ccccc1)NC(=O)[C@H](CC(C)C)NC(=O)/C=C/c1cc(OC)cc(OC)c1
inhibition / %: 48

* * *

System: Severe acute respiratory syndrome coronavirus 2
assay_method_text: Inhibition of SARS-CoV-2 MPro using Boc-Abu-Tle-Leu-Gln-AMC as substrate assessed as Kinact/Ki ratio preincubated for 5 mins followed by substrate addition and measured after 60 mins
condition_summary: time 65.0 min
readout_kind: Ratio (M⁻¹ s⁻¹)

compound: C=CC(=O)[C@H](Cc1ccccc1)NC(=O)[C@H](CC(C)C)NC(=O)c1cc2ccccc2s1
readout_kind: Ratio
result_value: 21700
--
compound: C=CC(=O)[C@H](Cc1ccccc1)NC(=O)[C@H](CC(C)C)NC(=O)/C=C/c1ccccc1
readout_kind: Ratio
result_value: 9630
--
compound: C=CC(=O)[C@H](Cc1ccccc1)NC(=O)[C@H](CC(C)C)NC(=O)CCc1ccc(N(C)C)cc1
readout_kind: Ratio
result_value: 14700
--
compound: C=CC(=O)[C@H](Cc1ccccc1)NC(=O)[C@H](CC(C)C)NC(=O)c1cc(C)on1
readout_kind: Ratio
result_value: 21300
--
compound: C=CC(=O)[C@H](Cc1ccccc1)NC(=O)[C@H](CC(C)C)NC(=O)c1sc(-c2ccccc2)nc1C
readout_kind: Ratio
result_value: 29000
--
compound: C=CC(=O)[C@H](Cc1ccccc1F)NC(=O)[C@H](CC(C)C)NC(=O)COc1ccc(Cl)cc1Cl
readout_kind: Ratio
result_value: 13300
--
compound: C=CC(=O)[C@H](Cc1ccccc1)NC(=O)[C@H](CC(C)C)NC(=O)C1CCc2ccccc2O1 (stereo partly drawn)
readout_kind: Ratio
result_value: 14900
--
compound: C=CC(=O)[C@H](Cc1ccccc1)NC(=O)[C@H](CC(C)C)NC(=O)/C=C/c1cc(OC)cc(OC)c1
readout_kind: Ratio
result_value: 9130

* * *

assay_method_text: Stability in mouse plasma assessed as half life
Assay type: ADME, cell-free

compound_structure_string: C=CC(=O)[C@H](Cc1ccccc1)NC(=O)[C@H](CC(C)C)NC(=O)COc1ccc(Cl)cc1Cl
half-life: > 4 h
--
compound_structure_string: C=CC(=O)[C@H](Cc1ccccc1)NC(=O)[C@H](CC(C)C)NC(=O)CSc1ccccc1
half-life: > 4 h

Recorded values, source ChEMBL document CHEMBL6153062.
